# Tm of rhGAA values compiled below
# target.desc: recombinant human α-glucosidase (rhGAA) (Homo sapiens)
# assay.method.text: Thermal stability shift assay (SYPRO Orange) of rhGAA
# Format: binding
# reported.conditions: 100 μM compound; Tm without compound 50.2° C.

- molecule: "OC[C@@H]1NC[C@H](O)[C@H]1O"
  target.desc: "recombinant human α-glucosidase (rhGAA) (Homo sapiens)"
  Tm of rhGAA, °C: 69.8
- molecule: "OC[C@@H]1N[C@@H](CO)[C@H](O)[C@H]1O"
  target.desc: "recombinant human α-glucosidase (rhGAA) (Homo sapiens)"
  Tm of rhGAA, °C: 65
